ASSAY_SUMMARY: Permeability from basolateral to apical side in human Caco2 cells
Format: ADME, cell-based
CONDITION_SET: Caco-2, read-out: permeability
Assignment: determine reported Papp B→A for the given molecules.
// units = ×10⁻⁶ cm/s; emit number, no label

Task: I am curious: what Papp B→A value has been reported for "CC[C@@H]1C[C@]1(NC(=O)[C@@H]1C[C@@H](Oc2cc(-c3csc(NC(C)C)n3)nc3c(Cl)c(OCCN4CC[C@@H](OC)C4)ccc23)CN1C(=O)[C@@H](NC(=O)O[C@@H]1C[C@@H]2C[C@@H]2C1)C(C)(C)C)C(=O)O" ?
Output: 30

Task: Fill in: Papp B→A of "CC[C@@H]1C[C@]1(NC(=O)[C@@H]1C[C@@H](Oc2cc(-c3csc(NC(C)C)n3)nc3c(Cl)c(OC)ccc23)CN1C(=O)[C@@H](NC(=O)O[C@@H]1C[C@@H]2[C@H](C1)C2(F)F)C(C)(C)C)C(=O)O" is ___
Output: 49

Task: For the molecule "CC[C@@H]1C[C@]1(NC(=O)[C@@H]1C[C@@H](Oc2cc(-c3csc(NC(C)C)n3)nc3c(Cl)c(OC)ccc23)CN1C(=O)[C@@H](NC(=O)O[C@H]1C[C@@H]2[C@H](C1)C2(F)F)C(C)(C)C)C(=O)O" , what Papp B→A is on record?
Output: 18

Task: Quick check: Papp B→A of "CC[C@@H]1C[C@]1(NC(=O)[C@@H]1C[C@@H](Oc2cc(-c3csc(NC(C)C)n3)nc3c(Cl)c(OCCN4CCOCC4)ccc23)CN1C(=O)[C@@H](NC(=O)O[C@@H]1C[C@@H]2C[C@@H]2C1)C(C)(C)C)C(=O)O" ?
Output: 8.2

* * *

ASSAY_SUMMARY: Fraction unbound in cynomolgus monkey plasma
Assay type: ADME, cell-free, Macaca fascicularis
MEASURED_METRIC: fraction unbound
When you answer, write just the number.

Task: Which fraction unbound reading was recorded for the molecule CC[C@@H]1C[C@]1(NC(=O)[C@@H]1C[C@@H](Oc2cc(-c3csc(NC(C)C)n3)nc3c(Cl)c(OCCN4CCOCC4)ccc23)CN1C(=O)[C@@H](NC(=O)O[C@@H]1C[C@@H]2C[C@@H]2C1)C(C)(C)C)C(=O)O [VEDROPREVIR] ?
Output: 0.016

* * *

ASSAY_SUMMARY: Clearance in cynomolgus monkey at 1 mg/kg, iv and 4 mg/kg, po
Type: ADME, organism-based, Macaca fascicularis
CONDITION_SET: in vivo
MEASURED_METRIC: clearance (mL/min/kg)
Please give a number only; it is taken to be in mL/min/kg.

Task: Which measured clearance value corresponds to "CC[C@@H]1C[C@]1(NC(=O)[C@@H]1C[C@@H](Oc2cc(-c3csc(NC(C)C)n3)nc3c(Cl)c(OCCN4CCOCC4)ccc23)CN1C(=O)[C@@H](NC(=O)O[C@@H]1C[C@@H]2C[C@@H]2C1)C(C)(C)C)C(=O)O" ?
Output: 4.83

* * *

Please respond with reported solubility thermodynamic for every item in the list.
ASSAY_SUMMARY: Thermodynamic solubility of the compound at pH 2.2
Type: physicochemical
CONDITION_SET: buffer, read-out: Therm_solubility
Report as a plain number; the unit µM is understood.

Task: Consider the molecule "CC[C@@H]1C[C@]1(NC(=O)[C@@H]1C[C@@H](Oc2cc(-c3csc(NC(C)C)n3)nc3c(Cl)c(OCCN4CCOCC4(C)C)ccc23)CN1C(=O)[C@@H](NC(=O)O[C@@H]1C[C@@H]2C[C@@H]2C1)C(C)(C)C)C(=O)O" and give its measured solubility thermodynamic.
Output: 1900

Task: Looking for the measured solubility thermodynamic of "CC[C@@H]1C[C@]1(NC(=O)[C@@H]1C[C@@H](Oc2cc(-c3csc(NC(C)C)n3)nc3c(Cl)c(OCCN4CCOCC4)ccc23)CN1C(=O)[C@@H](NC(=O)O[C@@H]1C[C@@H]2C[C@@H]2C1)C(C)(C)C)C(=O)O" , can you help?
Output: 790

Task: Consider the molecule shown here: "CC[C@@H]1C[C@]1(NC(=O)[C@@H]1C[C@@H](Oc2cc(-c3csc(NC(C)C)n3)nc3c(Cl)c(OC)ccc23)CN1C(=O)[C@@H](NC(=O)O[C@H]1C[C@@H]2[C@H](C1)C2(F)F)C(C)(C)C)C(=O)O" What is its recorded solubility thermodynamic?
Output: 20
